This listing pairs variants with measured protein stability index.
B1: KCNA1 (parent)
chain: LKASMRELGLLIFFLFIGVILFSS

- Variants of: B1
- ASSAY_INFO: protein stability index of a GFP-peptide fusion (GPS, HEK-293T) (PSI 1-6); higher = more stable;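 also: lentivirally expressed fusions sorted by FACS into six bins by GFP to DsRed ratio, PSI derived from sequencing read proportions per bin multiplied by bin number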
- CONDITION_CONTEXT: c terminus: a fixed tail appended
Could you respond with only the numeric value?

Examples with answers:
INSERT INTO assay_data (mutant_code, assay_result) VALUES
  ('L21K', 1.88),
  ('G18A', 1.77),
  ('L1T', 1.84);

Tell me measured protein stability index for `F14S` please.
3.66

Given `F22M` , respond with its protein stability index.
2.98
